Measured IC50 values are reported for all entries that follow.
biological target: human PD-L1 / Human PD-1 (Homo sapiens (Human), UniProt Q9NZQ7); assay: Enzyme-Linked Immunosorbent Assay (ELISA), human PD-1 binding to plate-coated human PD-L1; details: PD-1/PD-L1 ELISA, absorbance at 450 nm
Sequence (Q9NZQ7 19-239): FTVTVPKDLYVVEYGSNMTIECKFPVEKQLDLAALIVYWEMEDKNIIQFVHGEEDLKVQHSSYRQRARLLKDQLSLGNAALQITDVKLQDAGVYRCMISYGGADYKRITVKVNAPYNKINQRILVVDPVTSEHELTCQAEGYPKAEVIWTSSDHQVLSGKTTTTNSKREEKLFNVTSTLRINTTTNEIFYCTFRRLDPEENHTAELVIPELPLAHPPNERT

C[C@@](CO)(NCc1cc(Cl)c(OC2CCc3c(-c4cccc(OCCCN5CC(O)C5)c4Cl)cc(F)cc32)cc1OCc1cncc(C#N)c1)C(=O)O (stereo partly shown) | ≤ 5 nM

The record that follows has no IC50 shown yet.
Input: Fill in reported IC50 for this entry: CCOc1cc(NC2CCc3c(-c4cccc(OCCCN5CCCC5(C)C)c4C)cccc32)c(Cl)cc1CNC[C@@H]1CCC(=O)N1 (stereo partly shown)
Output: 5 to 500 nM

* * *

biological target: human PD-L1 / Human PD-1 (Homo sapiens (Human)); test: Enzyme-Linked Immunosorbent Assay (ELISA), human PD-1 binding to plate-coated human PD-L1; conditions: PD-1/PD-L1 ELISA, absorbance at 450 nm
Measured IC50 values are reported for all entries that follow.

COc1cc(OC2CCc3c(-c4cccc(OCCCN5CC(O)C5)c4Cl)cccc32)cc(OC)c1CN[C@@](C)(CO)C(=O)O (some centres unmarked) | 5 to 500 nM

Input: Fill in reported IC50 for this entry: "Cc1c(OCCCN2CCC(O)CC2)cccc1-c1cccc2c1CC[C@@H]2Oc1cc(OCCCN2CC[C@@H](O)C2)c(CN[C@@H]2CCCC[C@@H]2O)cc1Cl"
Output: ≤ 5 nM

Input: Fill in reported IC50 for this entry: "Cc1c(OCCCN2CCC(O)CC2)cccc1-c1cccc2c1CC[C@@H]2Oc1cc(OCc2cncc(C#N)c2)c(CN[C@@](C)(CO)C(=O)O)cc1Cl"
Output: ≤ 5 nM

Input: Fill in reported IC50 for this entry: CCOc1cc(NC2CCc3c(-c4cccc(OCCCN5CCC(C)(F)CC5)c4C)cccc32)c(Cl)cc1CNC[C@@H]1CCC(=O)N1 (some centres unmarked)
Output: 5 to 500 nM

Input: Fill in reported IC50 for this entry: Cc1c(OCCCN2CCC(F)CC2)cccc1-c1cc(F)cc2c1CCC2Oc1cc(OCc2cc(C#N)cc(C#N)c2)c(CN[C@H]2CCC(=O)NC2)cc1Cl (some centres unmarked)
Output: 5 to 500 nM

Input: Fill in reported IC50 for this entry: "N#Cc1cncc(COc2cc(O[C@H]3CCc4c(-c5cccc(OCCCn6ccnc6)c5Cl)cccc43)c(Cl)cc2CN[C@@H]2CCCC[C@@H]2O)c1"
Output: 5 to 500 nM

Input: Fill in reported IC50 for this entry: "N#Cc1cncc(COc2cc(O[C@H]3CCc4c(-c5cccc(OCCCN6CCC(F)CC6)c5Cl)cccc43)c(Cl)cc2CN[C@@H]2CCCC[C@H]2F)c1"
Output: 5 to 500 nM

Input: Fill in reported IC50 for this entry: CCOc1cc(O[C@@H]2c3cccc(-c4cccc(OCCCN5CCC(C)(F)CC5)c4C)c3C[C@@H]2F)c(Cl)cc1CNC(C(=O)NS(C)(=O)=O)[C@@H](C)O (some centres unmarked)
Output: 5 to 500 nM
